- TEST_TARGET: human phosphodiesterase 5 (PDE 5) (Homo sapiens (Human), UniProt O76074)
Quick rule for you: IC50 under 4 nM gets Criterion met, anything else gets Criterion not met.

# example entries with known answers
Cc1nc2c(cc1F)c(-c1nnc3c(n1)NC(=O)C3(C)C)nn2Cc1cccc(Cl)c1F = Criterion not met
Cc1ccc(Cn2nc(-c3nnc4c(n3)NC(=O)C4(C)C)c3cc(F)c(C)nc32)c(F)c1 = Criterion met
Cc1ccc(Cn2nc(-c3nnc4c(n3)NC(=O)C4(C)C)c3cc(F)c(C)nc32)c(F)c1F = Criterion met
Cc1ccc2c(-c3nnc4c(n3)NC(=O)C4(C)C)nn(Cc3ccc(C)c(F)c3)c2n1 = Criterion not met
Cc1ccc2c(-c3nnc4c(n3)NC(=O)C4(C)C)nn(Cc3ccc(F)cc3F)c2n1 = Criterion not met

Consider the compound Cc1ccc(Cn2nc(-c3nnc4c(n3)NC(=O)C43CC3)c3ccc(C)nc32)c(F)c1 . Is its IC50 strictly less than 4 nM? Criterion not met

Below 4 nM on IC50? Entry Cc1nc2c(cc1F)c(-c1nnc3c(n1)NC(=O)C3(C)C)nn2Cc1ccc(Cl)cc1F Criterion not met

====

- TEST_TARGET: recombinant guanylate cyclase reporter cell line (Rattus norvegicus (Rat), UniProt P19686+P20595)
- Sequence (P19686 whole entry): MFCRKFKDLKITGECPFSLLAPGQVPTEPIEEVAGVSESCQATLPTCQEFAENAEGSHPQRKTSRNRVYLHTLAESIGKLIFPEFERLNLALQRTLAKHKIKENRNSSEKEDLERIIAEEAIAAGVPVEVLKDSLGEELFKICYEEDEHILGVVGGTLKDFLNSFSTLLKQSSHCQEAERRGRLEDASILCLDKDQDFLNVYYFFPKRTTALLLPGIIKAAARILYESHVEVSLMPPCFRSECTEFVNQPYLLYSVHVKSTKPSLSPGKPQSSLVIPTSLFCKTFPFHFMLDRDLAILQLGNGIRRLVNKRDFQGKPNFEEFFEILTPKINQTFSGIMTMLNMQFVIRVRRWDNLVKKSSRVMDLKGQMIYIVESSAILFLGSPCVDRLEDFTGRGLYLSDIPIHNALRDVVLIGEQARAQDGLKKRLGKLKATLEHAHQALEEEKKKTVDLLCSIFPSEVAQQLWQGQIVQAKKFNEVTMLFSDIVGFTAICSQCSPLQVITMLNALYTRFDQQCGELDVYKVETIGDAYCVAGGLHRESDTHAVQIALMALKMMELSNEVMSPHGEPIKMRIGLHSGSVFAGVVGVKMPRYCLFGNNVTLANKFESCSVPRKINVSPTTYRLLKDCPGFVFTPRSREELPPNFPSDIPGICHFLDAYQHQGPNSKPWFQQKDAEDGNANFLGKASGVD
- Sequence (P20595 whole entry): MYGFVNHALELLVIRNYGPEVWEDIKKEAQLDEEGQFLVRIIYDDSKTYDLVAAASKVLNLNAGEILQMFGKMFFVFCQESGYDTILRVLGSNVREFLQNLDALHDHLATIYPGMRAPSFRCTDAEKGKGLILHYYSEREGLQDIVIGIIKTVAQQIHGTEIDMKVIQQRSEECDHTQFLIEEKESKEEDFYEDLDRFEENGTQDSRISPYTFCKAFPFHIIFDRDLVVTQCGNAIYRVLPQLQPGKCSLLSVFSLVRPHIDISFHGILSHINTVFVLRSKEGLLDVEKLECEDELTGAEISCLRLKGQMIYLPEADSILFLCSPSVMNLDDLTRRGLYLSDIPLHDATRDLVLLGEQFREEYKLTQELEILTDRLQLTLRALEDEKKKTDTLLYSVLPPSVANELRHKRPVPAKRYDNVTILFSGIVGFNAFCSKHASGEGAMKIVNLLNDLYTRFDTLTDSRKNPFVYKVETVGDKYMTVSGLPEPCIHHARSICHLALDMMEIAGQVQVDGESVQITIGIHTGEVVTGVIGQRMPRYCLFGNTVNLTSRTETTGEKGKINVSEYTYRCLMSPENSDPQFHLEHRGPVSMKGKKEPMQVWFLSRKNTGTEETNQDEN
- PROTOCOL_TEXT: Effect on a recombinant guanylate cyclase reporter cell line
- Assay type: cell-based
- APPLIED_CONDITIONS: in some cases means of individual determinations
Recorded measurements of MEC (minimum effective concentration), one per entry
// note: answer is a bare numeric in nM

Cc1ccc2c(-c3nnc4c(n3)NC(=O)C4(C)C)nn(Cc3ccc(Cl)cc3F)c2n1 = 300
Cc1ccc2c(-c3nnc4c(n3)NC(=O)C4(C)C)nn(Cc3ccc(C)c(F)c3)c2n1 = 1000
Cc1ccc(Cn2nc(-c3nnc4c(n3)NC(=O)C4(C)C)c3cc(F)c(C)nc32)c(F)c1F = 300

Return reported MEC (minimum effective concentration). Input compound: Cc1nc2c(cc1F)c(-c1nnc3c(n1)NC(=O)C3(C)C)nn2Cc1cccc(Cl)c1F 100

Consider the compound Cc1nc2c(cc1F)c(-c1nnc3c(n1)[N-]C(=O)C3(C)C)nn2Cc1cccc(F)c1F.[Na+] . State its measured MEC (minimum effective concentration). 30

Tell me MEC (minimum effective concentration) reported for Cc1nc2c(cc1F)c(-c1nnc3c(n1)NC(=O)C3(C)C)nn2Cc1cccc(F)c1F 30

Note down MEC (minimum effective concentration) recorded for Cc1ccc2c(-c3nnc4c(n3)NC(=O)C4(C)C)nn(Cc3cccc(Cl)c3F)c2n1 300

====

- TEST_TARGET: recombinant guanylate cyclase reporter cell line (Rattus norvegicus (Rat), UniProt P19686+P20595)
- PROTOCOL_TEXT: Effect on a recombinant guanylate cyclase reporter cell line
- Type: cell-based
- APPLIED_CONDITIONS: in some cases means of individual determinations
PROPERTY_MEASURED: MEC (minimum effective concentration) (nM)
Reply with just the number (in nM).

Output measured MEC (minimum effective concentration) for this item: Cc1ccc2c(-c3nnc4c(n3)NC(=O)C43CC3)nn(Cc3ccc(C)c(F)c3F)c2n1 [Example 26] 300

In one line, give reported MEC (minimum effective concentration) of the entry Cc1nc2c(cc1F)c(-c1nnc3c(n1)NC(=O)C3(C)C)nn2Cc1ccc(Cl)cc1F [Example 9] . 300

Complete the entry with MEC (minimum effective concentration) for Cc1ccc2c(-c3nnc4c(n3)NC(=O)C4(C)C)nn(Cc3ccc(C)c(F)c3F)c2n1 [Example 20] 300

Supply MEC (minimum effective concentration) value. Item: Cc1nc2c(cc1F)c(-c1nnc3c(n1)NC(=O)C3(C)C)nn2Cc1ccc(F)cc1F [Example 7] 100

====

- TEST_TARGET: recombinant guanylate cyclase reporter cell line (Rattus norvegicus (Rat), UniProt P19686+P20595)
- PROTOCOL_TEXT: Effect on a recombinant guanylate cyclase reporter cell line
- Assay type: cell-based
- APPLIED_CONDITIONS: in some cases means of individual determinations
# MEC (minimum effective concentration) per record follows
The reply should contain only the number, in nM.

Name the recorded MEC (minimum effective concentration) of the compound listed here: Cc1ccc2c(-c3nnc4c(n3)NC(=O)C43CC3)nn(Cc3cccc(F)c3F)c2n1 300

Return value of MEC (minimum effective concentration) for input Cc1ccc2c(-c3nnc4c(n3)NC(=O)C4(C)C)nn(Cc3c(F)cccc3F)c2n1 , no commentary. 300

Return reported MEC (minimum effective concentration). Input compound: Cc1nc2c(cc1F)c(-c1nnc3c(n1)NC(=O)C3(C)C)nn2Cc1c(F)ccc(F)c1F 30

Given Cc1nc2c(cc1F)c(-c1nnc3c(n1)NC(=O)C3(C)C)nn2Cc1c(F)cccc1F , respond with its MEC (minimum effective concentration). 65

====

- TEST_TARGET: recombinant guanylate cyclase reporter cell line (Rattus norvegicus (Rat), UniProt P19686+P20595)
- PROTOCOL_TEXT: Effect on a recombinant guanylate cyclase reporter cell line
- Type: cell-based
- APPLIED_CONDITIONS: in some cases means of individual determinations
# MEC (minimum effective concentration) values compiled below
Field format: number, assumed nM, no unit text.

Sample records with MEC (minimum effective concentration):
Cc1ccc(Cn2nc(-c3nnc4c(n3)NC(=O)C4(C)C)c3ccc(C)nc32)c(F)c1 = 200
Cc1ccc2c(-c3nnc4c(n3)NC(=O)C4(C)C)nn(Cc3c(F)ccc(F)c3F)c2n1 = 300
Cc1ccc(Cn2nc(-c3nnc4c(n3)NC(=O)C4(C)C)c3cc(F)c(C)nc32)cc1F = 300

Answer with the recorded MEC (minimum effective concentration) for the molecule listed here: Cc1ccc(Cn2nc(-c3nnc4c(n3)NC(=O)C4(C)C)c3cc(F)c(C)nc32)c(F)c1 100

Answer with reported MEC (minimum effective concentration) of Cc1ccc2c(-c3nnc4c(n3)NC(=O)C4(C)C)nn(Cc3ccc(F)cc3F)c2n1 300
